Test system: E6SM
procedure summary: Compound was evaluated for the minimum inhibition concentration required to reduce virus-induced cytopathogenicity by 50%, determined against KOS,F,McIntyre strains of HSV-1 virus.
Format: functional
run conditions: Homo sapiens
Rule: MIC below 0.07 µg/mL gives true, anything at or above gives false.

compound: O=c1[nH]c(=O)n([C@H]2C[C@H](O)[C@@H](CO)O2)cc1/C=C/Br
category: true
//
compound: O=c1[nH]c(=O)n(C2COC(CO)C(O)C2)cc1C(F)(F)F (centres undefined)
category: true
//
compound: C#Cc1cn(C2COC(CO)C(O)C2)c(=O)[nH]c1=O (centres undefined)
category: false
//
compound: Nc1nc2c(ncn2COCCO)c(=O)[nH]1
category: false
//
compound: C=Cc1cn(C2COC(CO)C(O)C2)c(=O)[nH]c1=O (centres undefined)
category: false
//
compound: O=c1[nH]c(=O)n(C2COC(CO)C(O)C2)cc1Cl (centres undefined)
category: false
//
compound: CC#Cc1cn(C2COC(CO)C(O)C2)c(=O)[nH]c1=O (centres undefined)
category: false
//
compound: O=c1[nH]c(=O)n(C2COC(CO)C(O)C2)cc1-c1cccs1 (centres undefined)
category: false
//
compound: O=c1[nH]c(=O)n(C2COC(CO)C(O)C2)cc1I (centres undefined)
category: true
